The measured values listed here are drawn from PubChem BioAssay (NCI).

Test system: OVCAR-5 ovarian
Experiment: NCI tumour cell line growth inhibition, 48 h
Endpoint Name: TGI (µM)
Give a bare numeral; the unit µM is implied.

The examples below pair each entry with its known result.
>>> assay_value("O=C(Nc1nnc(-c2ccccc2)o1)C(SC(=S)N1CCCCC1)c1ccccc1 (stereo not given)")
82.9
>>> assay_value("O=C1c2ccccc2-c2c1c1ccccc1c(=O)n2CCCCNCCCn1c2c(c3ccccc3c1=O)C(=O)c1ccccc1-2")
1.54

Here's the next entry for you.
Form field: reported TGI of CC1(C)CC23C4COC(=O)C2CCC1C3CC4=O (stereo not given)
72.4

* * *

Tested on: OVCAR-4 ovarian
Experiment: NCI tumour cell line growth inhibition, 48 h
Hi, to clarify the labels: Satisfied covers TGI from 70 µM upward, Not satisfied covers anything below 70 µM.

See these solved cases before continuing.
>>> category("O=C1C(Cl)=C(Nc2cccc(Cl)c2)C(=O)N1Cc1ccccc1")
"Not satisfied"
>>> category("Cc1c2c(c(C)n1-c1ccccc1)C(=O)N(CCCCN1CCN(c3ccccc3)CC1)C2=O")
"Satisfied"
>>> category("C=C1C(=O)O[C@H]2[C@H]1CC/C(CNC(=O)Cc1c[nH]c3ccccc13)=C\\CC[C@@]1(C)O[C@@H]21")
"Not satisfied"
>>> category("O=C(Nc1nnc(-c2ccccc2)o1)C(SC(=S)N1CCCCC1)c1ccccc1 (stereo unspecified)")
"Satisfied"

Moving on to the next compound.
Say whether O=C1/C(=C/c2ccccc2)CCCC1CN1CCCCC1 (stereo unspecified) shows TGI of 70 µM or more.
Not satisfied

* * *

Test system: DU-145 prostate
Assay: NCI tumour cell line growth inhibition, 48 h
Endpoint Name: GI50

The examples below pair each entry with its known result.
>>> assay_value("CC1(C#N)N(C(=O)c2ccccc2)c2ccccc2N1C(=O)c1ccccc1")
"81.8 µM"
>>> assay_value("CC1(C)N=C(N)N=C(N)N1c1cccc(CCCCc2cccc(S(=O)(=O)F)c2)c1")
"1.17 µM"

Can you look up GI50 on DU-145 prostate for CCCCON(OC(=O)c1ccccc1)C(=O)c1ccccc1 ?
> 100 µM

Cool, now CC(=O)NCCc1c2c(c3nccc4c3c1Nc1ccccc1-4)OCS2
1.06 µM

Cool, now COc1cc2c3c(n(CCCN)c(=O)c2cc1OC)-c1ccccc1C3=O
1.83 µM

Cool, now COC(=O)CCC(=O)C(=O)OC
31700 µM

* * *

System: UO-31 renal
Assay: NCI tumour cell line growth inhibition, 48 h; in the data active = GI50 below about 0.43 µM; inactive = the rest
Parameter call: string, one of active, inactive

See these solved cases before continuing.
>>> category("COC(=O)CCC(=O)C(=O)OC")
"inactive"
>>> category("O=C(Nc1ccc(Cl)c(Cl)c1)c1cccc(NC2=C(Cl)C(=O)N(Cc3ccccc3)C2=O)c1")
"inactive"

Moving on to the next molecule.
Which outcome did this test record for the molecule O=C(Nc1cccc(-n2ccc3c(NC(=O)c4ccccc4)nccc32)c1)c1ccc(N2CCOCC2)c(C(F)(F)F)c1 ?
active

* * *

Test system: DU-145 prostate
Test: NCI tumour cell line growth inhibition, 48 h
Recorded TGI for the following compounds

>>> assay_value("N=C(N)c1ccc(OCc2cccc(COc3ccc(C(=N)N)cc3)c2)cc1")
"20.3 µM"
>>> assay_value("OCC1OC(n2nc(-c3ccccc3)nc2-c2cnccn2)C(O)C(O)C1O (stereo not drawn)")
"> 100 µM"
>>> assay_value("O=C(O)c1ccccc1NC(c1ccccc1)c1ccc2cccnc2c1O (stereo not drawn)")
"> 100 µM"
>>> assay_value("COc1cc(NS(C)(=O)=O)ccc1Nc1c2ccc([N+](=O)[O-])cc2nc2c(C)cccc12")
"10.7 µM"
>>> assay_value("CS(=O)(=O)c1ccc(/C=N/NC(N)=S)cc1")
"> 100 µM"
>>> assay_value("COc1cc(C=O)ccc1Oc1nnnn1-c1ccccc1")
"> 100 µM"
>>> assay_value("O=C1OC[C@@H]2[C@@H](O)CCCCCN12")
"> 100 µM"
>>> assay_value("C=CCN1CCC(OC(=O)C(O)(C#CC)C2CCCC2)CC1 (stereo not drawn)")
"> 100 µM"
>>> assay_value("COc1ccc(/C=C2\\CCCC(CN(C)C)C2=O)cc1 (stereo not drawn)")
"30.2 µM"
>>> assay_value("COc1cccc2c1C(=O)C=CC2=O")
"33.5 µM"

Form field: reported TGI of CCOC(=O)CN1C(=O)c2c(c(C)n(-c3ccccc3)c2C)C1=O
> 100 µM

Cool, now O=P1(C(O)/C=C/c2ccccc2)N(Cc2ccccc2)[C@H](c2ccccc2)[C@@H](c2ccccc2)N1Cc1ccccc1 (stereo partly drawn)
> 100 µM

Cool, now NC(=O)NNCc1ccccc1
> 100 µM
